Recorded % Change Compared to pH 7.4 + Calcium values for a group of binders are listed next.
assay target: T1, recombinant, soluble human ASGR-1 (human, UniProt P07306 62-291)
T1 construct: biotinylated in the binning assay; also called soluble huASGR-1; Soluble ASGR-1 (Amgen)
T1 sequence: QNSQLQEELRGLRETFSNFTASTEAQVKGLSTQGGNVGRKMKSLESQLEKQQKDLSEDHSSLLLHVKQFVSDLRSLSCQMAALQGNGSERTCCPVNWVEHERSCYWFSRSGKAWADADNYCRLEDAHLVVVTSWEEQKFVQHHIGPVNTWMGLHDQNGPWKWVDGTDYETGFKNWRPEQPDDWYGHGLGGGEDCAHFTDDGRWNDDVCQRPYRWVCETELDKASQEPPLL
protocol text: Octet BLI dissociation, pH 5.6 plus calcium
Please don't drop the unit; write it after the number.

[
  {
    "binder": "176H4 (antibody, V domains shown, hybridoma mAb) VH: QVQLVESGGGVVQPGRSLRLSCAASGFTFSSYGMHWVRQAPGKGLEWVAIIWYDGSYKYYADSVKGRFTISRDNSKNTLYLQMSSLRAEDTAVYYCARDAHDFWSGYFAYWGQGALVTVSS VL: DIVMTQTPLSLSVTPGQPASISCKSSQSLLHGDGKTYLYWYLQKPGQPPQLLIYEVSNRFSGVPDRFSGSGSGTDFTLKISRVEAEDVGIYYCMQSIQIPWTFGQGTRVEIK",
    "% Change Compared to pH 7.4 + Calcium": "-4%"
  }
]

In the following, a different binder is considered.
Q) Tell me the measured % Change Compared to pH 7.4 + Calcium of 10G6 (antibody, V domains shown, hybridoma mAb) VH: QVQLVQSGAEVKKPGASVKVSCKASGYTFTAYHMHWVRQAPGQGLEWMGWINPNNNGTNYAQKFQGRVTMTRDTSISTAYMELSRLRSDDTAVYYCGRDVTSSFDYWGQGTLVTVSS VL: DIQMTQSPSSVSASVGDRVTITCRASQGISKWLAWYQQKPGKAPKILIYAAYSLQSGVPARFSGSGSGTDFTLTIRSLQPEDFATYYCQQANSFPFTFGPGTKVDIK , please.
A) 4%
